- Tested on: IGROV1 ovarian
- testProtocol: NCI-60 one-dose screen, 48 h (100 = growth as untreated, 0 = no growth, -100 = all killed)
- measurementSetup: 10 µM unless noted
Compounds without any hit were thinned out: in the full panel of roughly 83,000, 20% have a hit. Active and inactive are the calls of the source. The calls were made as follows: active = growth percent below 10; inactive = the rest.
testReadout: growth

>  <structureString>
CCN(CC)c1ccc(N=Nc2cc(Cl)ccc2Cl)c(NC(=O)CCC(=O)O)c1

>  <recordedValue>
92.2% (inactive)

$$$$
>  <structureString>
O=Cc1c[nH]c2ccc(NC(=O)OCc3ccccc3)cc12

>  <recordedValue>
32.4% (inactive)

$$$$

Can you look up the measured growth of O=C1/C(=C/c2ccc3cccc(Cl)c3n2)SC(=S)N1CCc1ccc(O)cc1 for me? 47% (inactive)

Cool, now Clc1ccc(-n2cnc3c(Cl)ncnc32)cc1Cl 54.6% (inactive)

---

- Tested on: SK-MEL-2 melanoma
- testProtocol: NCI-60 one-dose screen, 48 h
- measurementSetup: 10 µM unless noted
- Protocol: Growth inhibition of the SK-MEL-2 human tumor cell line is measured as a screen for anti-cancer activity. Cells are grown in 96 well plates and exposed to the test compound for 48 hours. Compounds are tested at a single concentration, which is 10^-5 M for most compounds. The reported endpoint is percent growth (GI% or GIPRCNT), where numbers from 0 - 100% represent growth inhibition, and numbers from -100% - 0 represent cell death. For example, a value of 40 represents 60% growth inhibition. […]
About 83,000 compounds went through this panel and 20% of them were active in at least one assay; those are over-represented in the sample as a whole. The source made the active and inactive calls. Rule for the calls: active = growth percent below 10; inactive = the rest.
Please answer using one outcome listed in y for active, n for inactive

Observe how each entry below is paired with its result.
>  <compound>
O=C(/C=C/c1ccccc1)CC(c1ccccc1)N1CCOCC1 (stereo unspecified)

>  <classLabel>
y

$$$$
>  <compound>
O=C1C[C@@H]2/C(=C(O)\C=C\c3ccccc3)C(=O)C=C[C@@H]2O1

>  <classLabel>
y

$$$$
>  <compound>
COc1ccc2c(c1)nc(N)c1c3ccccc3cn21

>  <classLabel>
n

$$$$
>  <compound>
O=C(Nc1ccccc1Cl)c1cnc2ccc(C3CCNCC3)cn12

>  <classLabel>
n

$$$$
>  <compound>
O=C(Nc1ccncc1)C(=O)c1cn(S(=O)(=O)c2cccc(F)c2)c2ccccc12

>  <classLabel>
y

$$$$

# lookup: test call for CCCCOc1ccc(C(C)(C)c2ccc(OCCCC)cc2)cc1 n

Cool, now S=C(Nc1ccc(C2=NCCN2)cc1)Nc1ccc(C2=NCCN2)cc1 n

Cool, now CSc1ccc2c(c1)N(CCC1CCCCN1C)c1ccccc1S2 (stereo unspecified) n

Cool, now Cn1cc(-c2csc(-c3cn(C)c4ncccc34)n2)c2cccnc21 n

Cool, now Nc1ccc(S(=O)(=O)Nc2ncccn2)cc1 n

Cool, now Cc1cccc(Cl)c1NC(=O)c1ccc2nc(NC(=O)NC3CC(C)(C)NC(C)(C)C3)sc2c1 n

---

- Test system: NCI-H522 lung
- testProtocol: NCI-60 one-dose screen, 48 h (100 = growth as untreated, 0 = no growth, -100 = all killed)
- measurementSetup: 10 µM unless noted
The panel holds about 83,000 compounds, 20% with a hit somewhere; the sample as a whole holds those more often.
Field 'label' (enum: satisfied / not satisfied). Set to satisfied when growth is strictly under 60%; else not satisfied.

>  <molecule>
C/C(=C\CCc1ccsc1)CC/C=C(\C)CCCN1CCN(CCO)CC1

>  <classLabel>
not satisfied

$$$$
>  <molecule>
COc1ccc(-c2c3c(nn2-c2ccc(N)cc2)CCc2cnoc2-3)cc1OC

>  <classLabel>
not satisfied

$$$$
>  <molecule>
COc1ccc(C2CC(c3cccc(Nc4ccnc5cc(Cl)ccc45)c3)=NN2C=O)cc1 (stereo not given)

>  <classLabel>
satisfied

$$$$

Strictly below 60% in growth? O=C(/C=C/c1cccnc1)NCCCCC1CCCN(C(=O)c2ccccc2)C1 (stereo not given) satisfied

---

Catalogue of growth readings, one per entry.
- System: SN12C renal
- testProtocol: NCI-60 one-dose screen, 48 h (100 = growth as untreated, 0 = no growth, -100 = all killed)
- measurementSetup: 10 µM unless noted
This is part of a sample that, as a whole, favours compounds with a hit. Of some 83,000 tested, about 20% had one in any assay.
Report the value in % with no unit label.

>  <molecule>
COC(=O)CC1=C(C)/C(=C/c2[nH]c(-c3ccc[nH]3)cc2OC)N=C1C

>  <growth [%]>
21.4

$$$$

Can you look up the measured growth of Cc1cc2c(C#N)n3c(c2cc1C)C(=O)C(c1ccccc1)Oc1ccccc1-3 (stereo not drawn) for me? 27.8

Cool, now CCCCCCCCCCCCCCCCCc1nccn1CCO 52.2

Cool, now COc1ccc(C(=O)Nc2nc(-c3ccc(Cl)cc3)cs2)cc1 101

Cool, now CCC(c1ccccc1)c1noc(CCN(CC)CC)n1 (stereo not drawn) 100

Cool, now CCOc1cc(-c2ccc[nH]2)[nH]c1/C=C1\N=C(C)C(C(=O)OC)=C1C -75.8

Cool, now O=c1c(O)cccn1CCCNCCCN(CCCn1cccc(O)c1=O)CCCn1cccc(O)c1=O 87

Cool, now CC[C@]1(O)CC2CN(CCc3c([nH]c4ccccc34)[C@@](C(=O)OC)(c3cc4c(cc3OC)N(C)[C@H]3[C@@](O)(C(=O)OC)[C@H](OC(C)=O)[C@]5(CC)C=CCN6CC[C@]43[C@@H]65)C2)C1 (stereo partly drawn) 39.6

Cool, now O=C(O)c1ccc(NC(=O)c2cccc(Nc3ccnc(C(F)(F)F)c3)c2)cc1 106

Cool, now CCOC(=O)C1=C(C)N2C(=NC3=C(CCC/C3=C\c3ccc(Cl)cc3)C2c2ccc(Cl)cc2)S1 (stereo not drawn) 58.1

Cool, now N#Cc1ccc(NC(=O)Nc2ccc(Oc3ccc(NC(=O)Nc4ccc(C#N)cc4)cc3)cc2)cc1 39

---

- Tested on: MALME-3M melanoma
- testProtocol: NCI-60 one-dose screen, 48 h
- measurementSetup: 10 µM unless noted
The panel holds about 83,000 compounds, 20% with a hit somewhere; the sample as a whole holds those more often. Active and inactive are the calls of the source. The calls were made as follows: active = growth percent below 10; inactive = the rest.
Please answer using one outcome listed in active, inactive

>  <compound>
O=C(/C=C/c1ccccc1)CC(c1ccccc1)N1CCOCC1 (stereo not drawn)

>  <classLabel>
inactive

$$$$
>  <compound>
COc1cc(/C=C/c2nnc(-c3cc(-c4ccccc4)n[nH]3)o2)cc(OC)c1OC

>  <classLabel>
inactive

$$$$
>  <compound>
CCOC(=O)C1=C(COCCN)NC(C)=C(C(=O)OC)C1c1ccccc1Cl (stereo not drawn)

>  <classLabel>
inactive

$$$$
>  <compound>
CN(C(=O)c1ccccc1)N(C)C(=O)c1ccccc1

>  <classLabel>
inactive

$$$$
>  <compound>
O=C(/C=C/c1ccccc1Cl)c1ccc(O)cc1

>  <classLabel>
inactive

$$$$
>  <compound>
COc1cccc(C2C(C#N)=C(N)Oc3cc(OC)ccc32)c1 (stereo not drawn)

>  <classLabel>
inactive

$$$$

# lookup: test call for O=C1Cc2cc(CCN3CCN(CCOCCO)CC3)c(Cl)cc2N1Cc1ccc(-c2ccccc2-c2nn[nH]n2)cc1 inactive

Cool, now Cc1nc2c(O)cccc2cc1CO inactive

Cool, now Clc1ccc2c(Nc3ccc4oc(NCCN5CCCC5)nc4c3)ccnc2c1 inactive

Cool, now COc1ccc(-c2c(-c3cc(OC)c(OC)c(OC)c3)noc2N)cc1 inactive

Cool, now CO[C@H]1/C=C/O[C@@]2(C)Oc3c(C)c(O)c4c(O)c(c(/C=N/N5CCN(C)CC5)c(O)c4c3C2=O)NC(=O)/C(C)=C\C=C\C(C)[C@H](O)[C@@H](C)[C@@H](O)[C@@H](C)[C@@H](OC(C)=O)[C@@H]1C (stereo partly drawn) inactive

Cool, now Cc1nn(-c2ccccc2)c2nc(Cl)c(/C=C/C(=O)c3ccccc3)c(-c3ccccc3)c12 inactive

Cool, now CN(C)c1ccc(/C=C\c2ccnc3ccccc23)cc1 inactive

Cool, now Fc1ccc(-c2nc(Nc3ccc(-c4nc5ccccc5[nH]4)cc3)nc(N3CCOCC3)n2)cc1 active

Cool, now O=C1Nc2ccc(F)cc2/C1=C/c1nc(-c2ccc(F)cc2)n2ccccc12 inactive

Cool, now CC(=O)NCCSC(=O)C(=O)SCCNC(C)=O inactive

Cool, now Cc1cc(C)n(C(=O)c2nn(-c3ccc(Cl)cc3)cc2O)n1 inactive

Cool, now O=C(NN(C(=O)c1ccccc1)c1cccs1)c1ccccc1 inactive

---

- System: NCI/ADR-RES ovarian
- testProtocol: NCI-60 one-dose screen, 48 h (100 = growth as untreated, 0 = no growth, -100 = all killed)
- measurementSetup: 10 µM unless noted
The panel holds about 83,000 compounds, 20% with a hit somewhere; the sample as a whole holds those more often.
testReadout: growth (%)
Report the value in % with no unit label.

Some solved cases for reference:
>  <compound>
Cn1cc(-c2csc(-c3c[nH]c4ncccc34)n2)c2cc(F)cnc21

>  <targetEntity>
NCI/ADR-RES ovarian

>  <growth / %>
63

$$$$
>  <compound>
CCOC(=O)C(C(C)=O)c1nc2sc3cc(Cl)ccc3n2c(=N)c1C#N (configuration not stated)

>  <targetEntity>
NCI/ADR-RES ovarian

>  <growth / %>
87.2

$$$$
>  <compound>
S=C(Nc1ccc(C2=NCCN2)cc1)Nc1ccc(C2=NCCN2)cc1

>  <targetEntity>
NCI/ADR-RES ovarian

>  <growth / %>
93.2

$$$$
>  <compound>
C[n+]1ccc(Nc2ccc(NC(=O)c3ccc(Nc4cc[n+](C)c5ccc(N)cc45)cc3)cc2)cc1

>  <targetEntity>
NCI/ADR-RES ovarian

>  <growth / %>
99.4

$$$$
>  <compound>
O=C(NCCc1ccccc1)C1CCC(=O)N1Cc1ccc(Br)cc1 (configuration not stated)

>  <targetEntity>
NCI/ADR-RES ovarian

>  <growth / %>
107

$$$$
>  <compound>
O=C(Nc1ccc(Nc2ccncc2)cc1)c1ccc(Nc2ccnc3ccc([N+](=O)[O-])cc23)cc1[N+](=O)[O-]

>  <targetEntity>
NCI/ADR-RES ovarian

>  <growth / %>
52

$$$$

Can you look up the measured growth of Clc1ccccc1[C@@H]1C[C@@H]2Cc3cc(Br)c4ccccc4c3N1O2 for me? 15.4
